Target: chicken mPRα (membrane progesterone receptor α) (Gallus gallus)
Construct: gene PAQR7; membrane fraction or whole cells; band approx. 42 kDa
Sequence (C6KGD4 1-346): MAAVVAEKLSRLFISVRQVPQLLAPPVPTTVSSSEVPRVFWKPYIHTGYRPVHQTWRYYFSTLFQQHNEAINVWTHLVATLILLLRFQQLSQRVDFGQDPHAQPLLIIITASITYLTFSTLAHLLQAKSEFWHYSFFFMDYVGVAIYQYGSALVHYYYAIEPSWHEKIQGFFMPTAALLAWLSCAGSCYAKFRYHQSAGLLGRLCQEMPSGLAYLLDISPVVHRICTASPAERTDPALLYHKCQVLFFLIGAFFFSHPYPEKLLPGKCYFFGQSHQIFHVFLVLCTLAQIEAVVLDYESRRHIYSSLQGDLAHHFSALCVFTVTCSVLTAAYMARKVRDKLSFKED
Assay: radioligand saturation binding, Scatchard plot, cell membrane fraction
pKd: −log10 of the molar value.

smiles-input	system-tested	pKd
CC(=O)[C@H]1CC[C@H]2[C@@H]3CC[C@H]4C[C@H](O)CC[C@]4(C)[C@H]3CC[C@]12C	chicken mPRα (membrane progesterone receptor α) (Gallus gallus)	7.93

Origin of the recorded values: paper PMC6850767
